assaySystem: purified recombinant human GAC (GLS1) (Homo sapiens)
Sequence (O94925 55-598 isoform O94925-3 limits assumed): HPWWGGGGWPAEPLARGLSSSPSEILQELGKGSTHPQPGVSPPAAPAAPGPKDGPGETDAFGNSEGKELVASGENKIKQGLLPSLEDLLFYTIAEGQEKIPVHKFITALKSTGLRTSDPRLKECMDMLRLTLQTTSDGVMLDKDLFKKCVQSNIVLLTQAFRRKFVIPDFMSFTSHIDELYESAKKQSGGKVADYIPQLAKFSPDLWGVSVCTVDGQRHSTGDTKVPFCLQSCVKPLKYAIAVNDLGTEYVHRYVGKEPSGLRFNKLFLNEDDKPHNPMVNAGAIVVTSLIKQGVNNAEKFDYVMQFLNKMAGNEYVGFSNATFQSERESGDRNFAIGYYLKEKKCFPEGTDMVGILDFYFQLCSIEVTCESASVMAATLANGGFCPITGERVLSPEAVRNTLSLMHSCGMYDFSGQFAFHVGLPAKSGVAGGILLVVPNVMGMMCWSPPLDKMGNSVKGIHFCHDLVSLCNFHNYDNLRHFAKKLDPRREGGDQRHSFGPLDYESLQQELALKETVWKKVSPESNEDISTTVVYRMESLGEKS
assayNotes: GLS1 Enzymatic Activity Assay (dual-coupled enzymatic assay)
pIC50: −log10 of the molar value.

structure	pIC50
Cc1ccc(CNC(=O)c2cn(CCCCc3cc4c(-c5ccc(C(F)(F)F)cc5)c(C5CC5)[nH]c4nn3)nn2)cn1	> 7.00
O=C(NCc1ncccn1)c1cn(CCCCc2cc3cc(C4CC4)[nH]c3nn2)nn1	5.30 to 6.30
CC(C)Cc1cc2cc(CCCCn3cc(C(=O)NCc4ccccc4)nn3)nnc2[nH]1	6.30 to 7.00

###

assaySystem: purified recombinant human GAC (GLS1) (Homo sapiens, UniProt O94925)
assayNotes: GLS1 Enzymatic Activity Assay (dual-coupled enzymatic assay)

compound	IC50
O=C(NCc1ccccn1)c1cn(CCCCc2cc3c(Cc4ccccc4)c(C4CC4)[nH]c3nn2)nn1 [Example 102]	< 100 nM
COc1cccc(-c2c(C3CC3)[nH]c3nnc(CCCCn4cc(C(=O)NCc5ccccn5)nn4)cc23)c1 [Example 121]	< 100 nM
O=C(NCc1cc(OC(F)(F)F)ccc1F)c1cn(CCCCc2cc3cc(C4CNC4)[nH]c3nn2)nn1 [Example 118]	< 100 nM
Nc1ccn(CCCCc2cc3cc(C4CC4)[nH]c3nn2)c(=O)c1 [Example 31]	500 to 5000 nM
Cc1ccc(CNC(=O)c2cn(CCCCc3cc4c(C5CC5)c(C5CC5)[nH]c4nn3)nn2)cn1 [Example 96]	< 100 nM
O=C(NCCC(F)(F)F)c1nnc(CCCCc2cc3cc(Cc4ccccc4)[nH]c3nn2)s1 [Example 83]	100 to 500 nM
COc1cccc(CNC(=O)c2cn(CCCCc3cc4cc(C5CC5)[nH]c4nn3)nn2)n1 [Example 33]	100 to 500 nM
Cn1ccnc1CNC(=O)c1cn(CCCCc2cc3cc(C4CC4)[nH]c3nn2)nn1 [Example 54]	500 to 5000 nM
O=C(NCc1ccc(C(F)(F)F)cn1)c1cn(CCCCc2cc3c(-c4ccc(F)cc4F)c(C4CC4)[nH]c3nn2)nn1 [Example 218]	< 100 nM
CNC(=O)c1cccc(-c2c(C3CC3)[nH]c3nnc(CCCCn4cc(C(=O)NCc5ccc(C)nc5)nn4)cc23)c1 [Example 158]	< 100 nM
O=C(NCc1cc(OC(F)(F)F)ccc1F)c1cn(CCCCc2cc3cc(C4CN(C(=O)C5CC(F)(F)C5)C4)[nH]c3nn2)nn1 [Example 226]	< 100 nM
CS(=O)(=O)c1cccc(-c2c(C3CC3)[nH]c3nnc(CCCCn4cc(C(=O)NCc5ccccn5)nn4)cc23)c1 [Example 136]	< 100 nM
COc1ccc(CNC(=O)c2cn(CCCCc3cc4cc(C5CC5)[nH]c4nn3)nn2)cn1 [Example 42]	< 100 nM
CC(C)OC(=O)N1CC(c2cc3cc(CCCCn4cc(C(=O)NCc5cc(OC(F)(F)F)ccc5F)nn4)nnc3[nH]2)C1 [Example 131]	< 100 nM
O=C(NCc1cc(OC(F)(F)F)ccc1F)c1cn(CCCCc2cc3cc(C4CN(C(=O)OC5CCC5)C4)[nH]c3nn2)nn1 [Example 233]	< 100 nM
O=C(NCc1cc(C(F)(F)F)ccn1)c1cn(CCCCc2cc3c(C4CC4)c(C4CCCC4)[nH]c3nn2)nn1 [Example 216]	< 100 nM
CC(C)(O)CNC(=O)c1nnc(CCCCc2cc3cc(Cc4ccccc4)[nH]c3nn2)s1 [Example 71]	500 to 5000 nM

###

Measured IC50, listed per entry.
assaySystem: purified recombinant human GAC (GLS1) (Homo sapiens)
assayNotes: GLS1 Enzymatic Activity Assay (dual-coupled enzymatic assay)

compound	IC50
CC(C)(O)c1ccc(CNC(=O)c2cn(CCCCc3cc4c(C5CC5)c(C5CC5)[nH]c4nn3)nn2)cn1 [Example 213]	< 100 nM
CC(C)Cc1c(C2CC2)[nH]c2nnc(CCCCn3cc(C(=O)NCc4ccccn4)nn3)cc12 [Example 110]	< 100 nM
CC(C)CNC(=O)c1cn(CCCCc2cc3cc(Cc4ccccc4)[nH]c3nn2)nn1 [Example 65]	500 to 5000 nM
O=C(NCc1ccccn1)c1cn(CCCCc2cc3cc(Cc4ccccc4)[nH]c3nn2)nn1 [Example 34]	< 100 nM
O=C(NCc1ccncc1)c1cn(CCCCc2cc3cc(C4CC4)[nH]c3nn2)nn1 [Example 37]	100 to 500 nM
CC(C)(C)OC(=O)N1CC(c2cc3cc(CCCCn4cc(C(=O)NCc5cc(OC(F)(F)F)ccc5F)nn4)nnc3[nH]2)C1 [Example 111]	< 100 nM
Cc1ccc(CNC(=O)c2cn(CCCCc3cc4c(-c5ccc(F)cc5F)c(C5CC5)[nH]c4nn3)nn2)cn1 [Example 147]	< 100 nM
O=C(Cc1ccccc1)Nc1ccn(CCCCc2cc3cc(Cc4ccccc4)[nH]c3nn2)c(=O)c1 [Example 9]	< 100 nM
